B1: ADD1 (parent)
chain: LRHSFQKQQREKTRWLNSGRGDEA

- Variants of: B1
- assay_details: protein stability index of a GFP-peptide fusion (GPS, HEK-293T) (PSI 1-6); higher = more stable;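 also: lentivirally expressed fusions sorted by FACS into six bins by GFP to DsRed ratio, PSI derived from sequencing read proportions per bin multiplied by bin number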
- condition_set: c terminus: a fixed tail appended
// false (0) strictly below 4 in protein stability index; true (1) otherwise

construct_sequence: LSHSFQKQQREKTRWLNSGRGDEA [R2S]
assigned_label: false (0)

construct_sequence: LRHSFQKQQREKTRTLNSGRGDEA [W15T]
assigned_label: true (1)

construct_sequence: LRHSFQKQQREKTRWYNSGRGDEA [L16Y]
assigned_label: false (0)

construct_sequence: LRHSFQKQQREKFRWLNSGRGDEA [T13F]
assigned_label: false (0)

construct_sequence: LRHSFQKQQREKTRWLNSGRGDEI [A24I]
assigned_label: false (0)

construct_sequence: LRHSFQKQQREKTRILNSGRGDEA [W15I]
assigned_label: true (1)

construct_sequence: LRHSFQKQQREKTRWLNSGEGDEA [R20E]
assigned_label: true (1)

construct_sequence: LRHSFHKQQREKTRWLNSGRGDEA [Q6H]
assigned_label: false (0)

construct_sequence: LRHSFQKQQREKTRWLGSGRGDEA [N17G]
assigned_label: false (0)

construct_sequence: LRHSFQKQQREKWRWLNSGRGDEA [T13W]
assigned_label: false (0)

construct_sequence: FRHSFQKQQREKTRWLNSGRGDEA [L1F]
assigned_label: false (0)

construct_sequence: LRHSFQKQQREKTRWLNTGRGDEA [S18T]
assigned_label: false (0)

construct_sequence: LRHWFQKQQREKTRWLNSGRGDEA [S4W]
assigned_label: false (0)

construct_sequence: LRHSFWKQQREKTRWLNSGRGDEA [Q6W]
assigned_label: false (0)

construct_sequence: LRHSFQKQQREKTRWLNSGRGDEP [A24P]
assigned_label: false (0)

construct_sequence: LRHSFQIQQREKTRWLNSGRGDEA [K7I]
assigned_label: false (0)

construct_sequence: LRHSFQKQQREKTKWLNSGRGDEA [R14K]
assigned_label: false (0)

construct_sequence: LRHSFQKGQREKTRWLNSGRGDEA [Q8G]
assigned_label: false (0)

construct_sequence: LRHSFQKQQREKTIWLNSGRGDEA [R14I]
assigned_label: false (0)

construct_sequence: LRLSFQKQQREKTRWLNSGRGDEA [H3L]
assigned_label: false (0)

construct_sequence: LRHSFQKQQRWKTRWLNSGRGDEA [E11W]
assigned_label: false (0)

construct_sequence: LRHSFQKQQRMKTRWLNSGRGDEA [E11M]
assigned_label: false (0)

construct_sequence: LRHSFQKQRREKTRWLNSGRGDEA [Q9R]
assigned_label: false (0)

construct_sequence: LRHSFAKQQREKTRWLNSGRGDEA [Q6A]
assigned_label: false (0)

construct_sequence: LRYSFQKQQREKTRWLNSGRGDEA [H3Y]
assigned_label: false (0)

construct_sequence: LRHSFQKYQREKTRWLNSGRGDEA [Q8Y]
assigned_label: false (0)

construct_sequence: LRHSFQKQQREKTRWLNSGRIDEA [G21I]
assigned_label: false (0)

construct_sequence: LRHSFQKQQREKTRELNSGRGDEA [W15E]
assigned_label: true (1)

construct_sequence: LRHSFQKQQREKTRWINSGRGDEA [L16I]
assigned_label: false (0)

construct_sequence: LRHSFQMQQREKTRWLNSGRGDEA [K7M]
assigned_label: false (0)

construct_sequence: LRHSFQKQQPEKTRWLNSGRGDEA [R10P]
assigned_label: false (0)

construct_sequence: LRHSRQKQQREKTRWLNSGRGDEA [F5R]
assigned_label: false (0)

construct_sequence: LRHSFQKQQREKTRWLNSQRGDEA [G19Q]
assigned_label: false (0)

construct_sequence: LRHSFQKQQLEKTRWLNSGRGDEA [R10L]
assigned_label: false (0)

construct_sequence: LRHSFQKQQREKTRLLNSGRGDEA [W15L]
assigned_label: true (1)

construct_sequence: LRHSFQKQQREKTRWLNSGRGDEV [A24V]
assigned_label: false (0)

construct_sequence: LRHSFQKQQREKTRQLNSGRGDEA [W15Q]
assigned_label: true (1)

Reference source for all entries: the supplement of paper PMC10567573
